Values compiled from PubChem BioAssay (Tox21).

# Subject of test: Acetylcholinesterase (Homo sapiens)
# Protocol: Acetylcholinesterase (AChE) small molecule antagonists: enzyme-based qHTS assay (AID 1347397); also: nearly all actives have a fitted effect of over 55% in size
# Particulars: AChE enzyme activity inhibition; series mostly up to 115 µM
Active and inactive are the calls of the source. Calls follow the shape of the full dose curve.
Reply using exactly one outcome from true (active), false (inactive)

Query :: Which outcome was assigned to `CCCCC(=O)O[C@]1(C(=O)CO)[C@H](C)C[C@H]2[C@@H]3CCC4=CC(=O)C=C[C@]4(C)[C@@]3(F)[C@@H](O)C[C@@]21C` in this test?
Result :: false

Query :: Which outcome was assigned to CC1OC(=O)C(C)OC1=O (stereo not given) in this test?
Result :: false

Query :: Which outcome was assigned to `Cc1cncc(C)c1` in this test?
Result :: false

Query :: Which outcome was assigned to `COc1cccc(OC)c1` in this test?
Result :: false

Query :: Which outcome was assigned to `C=CC(=C)CCCC(C)(C)OC(C)=O` in this test?
Result :: false

Query :: Which outcome was assigned to `O=CN1CCOCC1` in this test?
Result :: false

Query :: Which outcome was assigned to `Nc1nnc(-c2ccc([N+](=O)[O-])o2)o1` in this test?
Result :: false

Query :: Which outcome was assigned to CCCCC/C=C/CC1CC(=O)OC1=O (stereo not given) in this test?
Result :: false

Query :: Which outcome was assigned to `NS(=O)(=O)c1cc2c(cc1Cl)NC(CSCc1ccccc1)=NS2(=O)=O` in this test?
Result :: false

Query :: Which outcome was assigned to `O=C(O)[C@@H]1[C@H]2C[C@H]3c4[nH]c5ccccc5c4CCN3C[C@@H]2CC[C@@H]1O` in this test?
Result :: false

Query :: Which outcome was assigned to CCCC1CCOC(C)S1 (stereo not given) in this test?
Result :: false

Query :: Which outcome was assigned to `C1C[C@@H]2[C@H]3CC[C@H](C3)[C@@H]2C1` in this test?
Result :: false

Query :: Which outcome was assigned to `C/C=C(/C(=C/C)c1ccc(OC(C)=O)cc1)c1ccc(OC(C)=O)cc1` in this test?
Result :: false

Query :: Which outcome was assigned to CCC(C)CCCC(C)(C)O (stereo not given) in this test?
Result :: false

Query :: Which outcome was assigned to `COC(=O)c1cccc(Cl)c1` in this test?
Result :: false

Query :: Which outcome was assigned to `O=C(Oc1cccc2cccnc12)c1ccccc1` in this test?
Result :: false

Query :: Which outcome was assigned to `O=C(Cl)c1cccc([N+](=O)[O-])c1` in this test?
Result :: false

Query :: Which outcome was assigned to COc1cc2nc(N(C)CCCNC(=O)C3CCCO3)nc(N)c2cc1OC (stereo not given) in this test?
Result :: true
